Taken from ChEMBL document CHEMBL1133813.

Experiment: Bioavailability in dog (dose 2 mg/kg p.o. and 0.5 mg/kg i.v.)
Assay type: ADME, organism-based, Canis lupus familiaris
Settings: in vivo, po
# reported bioavailability; entries follow
measured metric: bioavailability (%)

INSERT INTO results (molecule, measured_metric, unit_abbreviation, limit_operator, reported_result) VALUES
  ('CCN(C(=O)OCc1ccccc1)C1CCN(C[C@H]2CN(C(=O)c3ccccc3Cl)C[C@@H]2c2ccccc2)CC1', 'bioavailability', '%', '=', 34),
  ('C=CCN(C(=O)OCc1ccc([N+](=O)[O-])cc1)C1CCN(CC[C@](C)(CN(C)S(=O)(=O)c2ccccc2)c2ccccc2)CC1', 'bioavailability', '%', '<', 1);
